RUN DESCRIPTION: Example 2 multiple rising dose inhaled delta-9-THC study: plasma pharmacokinetics
CONDITION: human, plasma, inhaled, 3.6 mg, tmax, Arithmetic Mean (SD), 3.6 mg m.d., Day 19, Group II
Method: A randomized, double-blind, placebo-controlled, multiple rising dose safety, tolerability, pharmacokinetic and pharmacodynamic study to assess two dose levels of inhaled delta-9-THC was conducted. Dose levels were studied in ascending order. […] For both dose levels, the first and the last dose of study drug was given under fasted conditions. […] Based on the results of the interim analyses, the dose level for investigation in Group II was determined. […]
MEASUREMENT LABEL: Tmax (min)
One number for each entry, in min.

For the molecule CCCCCc1cc(O)c2c(c1)OC(C)(C)[C@@H]1CCC(C)=C[C@@H]21 [delta-9-THC, delta-9-tetrahydrocannabinol] , report Tmax.
2.4

====

RUN DESCRIPTION: Example 2 multiple rising dose inhaled delta-9-THC study: plasma pharmacokinetics
CONDITION: human, plasma, inhaled, 1.2 mg, Cmax, Geometric Mean (Range), 1.2 mg m.d. (three times daily), Day 12, Group I
Description: A randomized, double-blind, placebo-controlled, multiple rising dose safety, tolerability, pharmacokinetic and pharmacodynamic study to assess two dose levels of inhaled delta-9-THC was conducted. Dose levels were studied in ascending order. […] For both dose levels, the first and the last dose of study drug was given under fasted conditions. […] Based on the results of the interim analyses, the dose level for investigation in Group II was determined. […]
MEASUREMENT LABEL: Cmax (ng/mL)
Give bare numbers, in ng/mL.

For the molecule CCCCCc1cc(O)c2c(c1)OC(C)(C)[C@@H]1CCC(C)=C[C@@H]21 [delta-9-THC, delta-9-tetrahydrocannabinol] , report Cmax.
6.9

====

RUN DESCRIPTION: Example 2 multiple rising dose inhaled delta-9-THC study: plasma pharmacokinetics
CONDITION: human, plasma, inhaled, 3.6 mg, tmax, Arithmetic Mean (SD), 3.6 mg s.d., Day 1
MEASUREMENT LABEL: Tmax (min)
Give bare numbers, in min.

For the compound CCCCCc1cc(O)c2c(c1)OC(C)(C)[C@@H]1CCC(C)=C[C@@H]21 [delta-9-THC, delta-9-tetrahydrocannabinol] , report Tmax.
4.8

====

RUN DESCRIPTION: Example 2 multiple rising dose inhaled delta-9-THC study: plasma pharmacokinetics
CONDITION: human, plasma, inhaled, 1.2 mg, AUC(0-8), Arithmetic Mean (SD), 1.2 mg s.d., Day 1
MEASUREMENT LABEL: AUC(0-t) (ng·h/mL)
One number for each entry, in ng·h/mL.

For the compound CCCCCc1cc(O)c2c(c1)OC(C)(C)[C@@H]1CCC(C)=C[C@@H]21 [delta-9-THC, delta-9-tetrahydrocannabinol] , report AUC(0-t).
6.61

====

RUN DESCRIPTION: Example 2 multiple rising dose inhaled delta-9-THC study: plasma pharmacokinetics
CONDITION: human, plasma, inhaled, 3.6 mg, Cmax, Geometric Mean (Range), 3.6 mg s.d., Day 1, plasma
MEASUREMENT LABEL: Cmax (ng/mL)
Give bare numbers, in ng/mL.

For the compound CCCCCc1cc(O)c2c(c1)OC(C)(C)[C@@H]1CCC(C)=C[C@@H]21 [delta-9-THC, delta-9-tetrahydrocannabinol] , report Cmax.
42.5

====

RUN DESCRIPTION: Example 2 multiple rising dose inhaled delta-9-THC study: plasma pharmacokinetics
CONDITION: human, plasma, inhaled, 3.6 mg, t½, Arithmetic Mean (SD), 3.6 mg m.d., Day 19, Group II
MEASUREMENT LABEL: half-life (h)
Give bare numbers, in h.

For the compound CCCCCc1cc(O)c2c(c1)OC(C)(C)[C@@H]1CCC(C)=C[C@@H]21 [delta-9-THC, delta-9-tetrahydrocannabinol] , report half-life.
94.8
